- Measurement Target: hemagglutinin (HA) of influenza B virus B/Florida (Yamagata lineage) (influenza B virus B/Florida/06 (Yamagata clade))
- Experiment: ForteBio Octet; antigen on the sensor, varying antibody concentrations
Experimental Endpoint: pKd
Recall that pKd is obtained by taking minus log10 of the concentration measured in molar.

Inquiry: Look at this binder and give its reported pKd. TRL835 (antibody, V domains shown) VH: QVQLVQSGAEVRKPGESLRISCRGSGYNFPKYWIGWVRQMPGKGLEWMGMIYPGDSDVRYNPSFQGQVTISADESINTAYLQWSSLRTSDTARYYCARHLGQQLVSNTYYYYGMDVWGQGTTVTVSS VL: DIVLTQSPLSLPVTPGEPASISCRSSQSLLDSNGYNYLDWYLQKPGQSPQLLIYLASYRAPGVPDRFSGSGSGTDFTLKISRVEAEDVGLYYCMQALQTPPMYTFGQGTKLEIKR
Reply text: 9.22
